# Test system: HEK293
# assay-method-text: Effect on forskolin-stimulated cAMP level in HEK293 cells at 10 uM by BRET assay relative to control
# Type: ADME, cell-based
# condition-summary: human, hek293, 10 µM
Here, each record is paired with measured Activity data.
Response body: numeric value in %, unit text excluded.

Recorded results for 2 molecules are shown here.
given-smiles | test-system | unit-name | Activity
Cc1c(C(=O)c2cccc3ccccc23)c2cccc3c2n1[C@H](CN1CCOCC1)CO3 | HEK293 | % | 102.6
CCCOc1ccc2c(c1)c(C(=O)c1ccc(OC)cc1)cn2CC1CCOCC1 | HEK293 | % | 127.6

For the molecule shown here, `COc1ccc(C(=O)c2cn(CC3CCOCC3)c3c(OCC(=O)O)cccc23)cc1` , give the reported Activity.
102.8

Bench note: what Activity did `COc1ccc(C(=O)c2cn(CC3CCOCC3)c3ccc(O)cc23)cc1` show?
109.6

Dear colleague, I am looking for the recorded Activity of the following molecule: `COc1ccc(C(=O)c2cn(CC3CCOCC3)c3c(OCCCCC(=O)O)cccc23)cc1`
129.1

Can you look up the measured Activity of `CCCOc1cccc2c(C(=O)c3ccc(OC)cc3)cn(CC3CCOCC3)c12` for me?
133.9

Recorded Activity of `O=C(c1cccc2ccccc12)c1cn(CCN2CCOCC2)c2ccc(O)cc12` , please.
118.7

---

Reported pKi is given for each of the following compounds.
# test-system: Cannabinoid receptor 1 (Homo sapiens, UniProt P21554)
# Sequence (P21554 whole entry): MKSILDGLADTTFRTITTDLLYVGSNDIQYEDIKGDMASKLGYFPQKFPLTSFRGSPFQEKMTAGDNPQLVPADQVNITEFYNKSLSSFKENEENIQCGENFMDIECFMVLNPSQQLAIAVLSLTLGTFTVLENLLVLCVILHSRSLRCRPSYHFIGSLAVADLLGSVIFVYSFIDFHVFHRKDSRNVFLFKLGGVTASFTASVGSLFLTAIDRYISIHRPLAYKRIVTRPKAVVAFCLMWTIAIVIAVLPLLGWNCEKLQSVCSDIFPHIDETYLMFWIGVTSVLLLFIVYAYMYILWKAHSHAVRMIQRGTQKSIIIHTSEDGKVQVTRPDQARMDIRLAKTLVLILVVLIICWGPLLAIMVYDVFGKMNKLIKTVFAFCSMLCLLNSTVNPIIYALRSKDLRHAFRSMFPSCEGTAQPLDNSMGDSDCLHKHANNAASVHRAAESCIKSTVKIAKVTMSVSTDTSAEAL
# assay-method-text: Displacement of [3H]CP55,940 from N-terminal HA-tagged human CB1 receptor expressed in HEK293 cell membranes after 1 hr by microbeta scintillation counting method
# condition-summary: read-out: Ki
// pKi here means minus log10 of the molar concentration (mol/L)

Record excerpt, results attached:
given-smiles | test-system | pKi
COc1ccc(C(=O)c2cn(CC3CCOCC3)c3c(O)cccc23)cc1 | Cannabinoid receptor 1 (Homo sapiens, UniProt P21554) | 5.45
COC(=O)CCCCOc1cccc2c(C(=O)c3ccc(OC)cc3)cn(CC3CCOCC3)c12 | Cannabinoid receptor 1 (Homo sapiens, UniProt P21554) | 5.80
COc1ccc(C(=O)c2cn(CC3CCOCC3)c3c(OCCCCCCNC(C)=O)cccc23)cc1 | Cannabinoid receptor 1 (Homo sapiens, UniProt P21554) | 5.41
O=C(c1cccc2ccccc12)c1cn(CC2CCOCC2)c2ccc(O)cc12 | Cannabinoid receptor 1 (Homo sapiens, UniProt P21554) | 6.08
CCCOc1cccc2c(C(=O)c3ccc(OC)cc3)cn(CC3CCOCC3)c12 | Cannabinoid receptor 1 (Homo sapiens, UniProt P21554) | 6.30

Next, consider the following compound.
Find the recorded pKi belonging to `O=C(c1cccc2ccccc12)c1cn(CCN2CCOCC2)c2ccc(O)cc12` and report it.
5.55

---

# Lookup of reported log10(EC50) keyed by entry
# test-system: Cannabinoid receptor 2 (Homo sapiens)
# Sequence (P34972 whole entry): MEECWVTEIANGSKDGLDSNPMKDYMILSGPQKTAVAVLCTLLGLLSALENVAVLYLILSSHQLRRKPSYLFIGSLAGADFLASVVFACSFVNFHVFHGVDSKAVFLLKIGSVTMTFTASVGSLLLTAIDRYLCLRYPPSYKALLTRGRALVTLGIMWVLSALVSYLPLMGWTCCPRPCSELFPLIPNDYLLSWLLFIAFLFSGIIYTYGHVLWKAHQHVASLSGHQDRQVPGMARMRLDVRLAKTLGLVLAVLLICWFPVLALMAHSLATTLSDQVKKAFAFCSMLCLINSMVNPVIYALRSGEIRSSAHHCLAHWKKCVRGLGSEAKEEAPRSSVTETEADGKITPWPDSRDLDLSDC
# assay-method-text: Agonist activity at N-terminal HA-tagged human CB2 receptor expressed in HEK293 cells transfected with YFP-Epac-RLuc assessed as decrease in forskolin-stimulated cAMP level by BRET assay
Field: value | Transform: log10 | Quantity: EC50 | Unit: µM

Past entries and their recorded results:
given-smiles | experimental-result
COc1ccc(C(=O)c2cn(CC3CCOCC3)c3ccc(OCC(=O)O)cc23)cc1 | -1.15
O=C(c1cccc2ccccc12)c1cn(CCN2CCOCC2)c2ccc(O)cc12 | -2.06
COc1ccc(C(=O)c2cn(CC3CCOCC3)c3ccc(O)cc23)cc1 | -2.36
COc1ccc(C(=O)c2cn(CCN3CCOCC3)c3ccc(O)cc23)cc1 | -2.27
O=C(c1cn(CCN2CCOCC2)c2ccc(O)cc12)C1CCCCC1 | -1.73

Which log10(EC50) is listed for `O=C(c1cccc2ccccc12)c1cn(CC2CCOCC2)c2ccc(O)cc12` ?
-1.83
